targetOrSystem: Fibroblast growth factor receptor (Homo sapiens, UniProt P22607+P11362+P22455+P21802)
assayComment: Inhibition of Fibroblast growth factor receptor (FGFr)
Assay type: protein assay
observedProperty: IC50 (µM)
Quick reminder: number only, in µM, skip the unit.

| compound | numericValue |
| --- | --- |
| O=c1ccc2cnc(Nc3ccc(N4CCC(CCCO)CC4)cc3)nc2n1C1CC2CCC1C2 (configuration not stated) | 8.62 |
| CC(C)n1c(=O)ccc2cnc(Nc3ccc(N4CCN(C)CC4)cc3)nc21 | 0.07 |
| CCn1c(=O)ccc2cnc(Nc3ccccc3)nc21 | 3.295 |
| CCn1c(=O)ccc2cnc(Nc3cccc(OC(F)(F)C(F)F)c3)nc21 | 44.2 |

Ask: Specify reported IC50 for the compound shown: CCCCn1c(=O)ccc2cnc(Nc3ccccc3)nc21
Reply: 5.29

Ask: Determine from records and report IC50 for CCCn1c(=O)ccc2cnc(Nc3ccccc3)nc21
Reply: 6.6

Ask: Quick one: give measured IC50 for CN1CCN(c2ccc(Nc3ncc4ccc(=O)n(C5CCCCC5)c4n3)cc2)CC1
Reply: 0.051

----------
This section presents compounds with their documented IC50 values.
targetOrSystem: Cyclin-dependent kinase 4/cyclin D (Homo sapiens)
assayComment: Inhibition of Cyclin-dependent kinase 4-cyclin D
Kindly write the number and append the unit.

Solved entries:
| compound | IC50 |
| --- | --- |
| CCn1c(=O)ccc2cnc(Nc3ccc(OC)c(OC)c3)nc21 | 4.08 µM |
| CC(C)CCn1c(=O)ccc2cnc(Nc3ccc(N4CCN(C)CC4)cc3)nc21 | 0.013 µM |
| CN1CCN(c2ccc(Nc3ncc4ccc(=O)n(CC(O)CO)c4n3)cc2)CC1 (stereo unspecified) | 1.65 µM |

Ask: Provide only the value of recorded IC50 for O=c1ccc2cnc(Nc3ccccc3)nc2n1CC1CCCCC1
Reply: 13.5 µM

Ask: Entry CCN(CC)CCOc1ccc(Nc2ncc3ccc(=O)n(C4CCCCC4)c3n2)cc1 needs its IC50 filled in; supply it.
Reply: 0.011 µM

Ask: Respond only with IC50 recorded for O=c1ccc2cnc(Nc3ccc(N4CCC(CCCO)CC4)cc3)nc2n1C1CC2CCC1C2 (stereo unspecified)
Reply: 0.008 µM

----------
targetOrSystem: Cyclin-dependent kinase 2/cyclin A (Homo sapiens)
assayComment: Inhibition of Cyclin-dependent kinase 2-cyclin A
observedProperty: IC50
Please format your answer as a value with the unit trailing.

Ask: Please report the measured IC50 for O=c1ccc2cnc(Nc3ccc(N4CCC(CCCO)CC4)cc3)nc2n1C1CC2CCC1C2 (stereo unspecified)
Reply: 209 nM

----------
Listing of entries alongside the reported IC50.
targetOrSystem: Cyclin-dependent kinase 4/cyclin D (Homo sapiens)
assayComment: Inhibition of Cyclin-dependent kinase 4-cyclin D
Entry rule: numbers only, all in nM.

| molecule | targetOrSystem | unitString | IC50 |
| --- | --- | --- | --- |
| COC(=O)Cn1c(=O)ccc2cnc(Nc3ccccc3)nc21 | Cyclin-dependent kinase 4/cyclin D (Homo sapiens) | nM | 31000 |

Ask: Please give measured IC50 of the following entry: CCn1c(=O)ccc2cnc(Nc3ccc(OCCOC)cc3)nc21
Reply: 2330

Ask: Supply IC50 value. Item: CC(C)n1c(=O)ccc2cnc(Nc3ccccc3)nc21
Reply: 145

Ask: Please give the documented IC50 of CC(C)Cn1c(=O)ccc2cnc(Nc3ccccc3)nc21
Reply: 297

Ask: Identify the reported IC50 for the following entry. CCC(C)n1c(=O)ccc2cnc(Nc3ccccc3)nc21 (stereo not given)
Reply: 190
